# Test system: Solanum lycopersicum
# ASSAY PROCEDURE: Stimulation of hypocotyl length of Solanum lycopersicum cv. Tres Cantos (tomato) at 0.1 mM or 1 mM after 5 days relative to untreated control
# Assay type: functional
Activity calls are given as the source filed them. The calls are words filed in the database; no cut-off is given here.

COMPOUND	Activity
C=C1CC[C@H]2C(=C)CC[C@@H]3[C@H](OC(=O)[C@]3(O)CO)[C@@H]12	inactive
C=C1[C@@H]2[C@H]3OC(=O)C(=C)[C@@H]3CCC(=C)[C@@H]2C[C@@H]1O	inactive
C=C1C(=O)O[C@H]2[C@H]1CCC(=C)[C@@H]1C[C@@H](O)C(=C)[C@@]12O [5ALPHA-HYDROXYISOZALUZANIN C]	>40%

----------
# Test system: Solanum lycopersicum
# ASSAY PROCEDURE: Inhibition of root length of Solanum lycopersicum cv. Tres Cantos (tomato) at 0.1 mM or 1 mM after 5 days relative to untreated control
# Format: functional
MEASURED ATTRIBUTE: inhibition (INH)

# example entries with known answers
COMPOUND	TESTED SYSTEM	inhibition (INH)
C=C1C(=O)O[C@H]2[C@H]1CCC(=C)[C@@H]1CCC(=C)[C@@]12O	Solanum lycopersicum	<20%
C=C1CC[C@H]2C(=C)CC[C@@H](C(=C)CO)[C@H](O)[C@@H]12	Solanum lycopersicum	<20%
C=C1[C@@H]2[C@H]3OC(=O)C(=C)[C@@H]3CCC(=C)[C@@H]2C[C@H]1O	Solanum lycopersicum	>40%

[ask] Reported inhibition (INH), compound C=C1C(=O)O[C@H]2[C@H]1CCC(=C)[C@@H]1C[C@@H](O)C(=C)[C@@]12O [5ALPHA-HYDROXYISOZALUZANIN C] : ____
[reply] >40%

----------
# System: Solanum lycopersicum
# ASSAY PROCEDURE: Stimulation of hypocotyl length of Solanum lycopersicum cv. Tres Cantos (tomato) at 0.1 mM or 1 mM after 5 days relative to untreated control
# Type: functional
The source made the active and inactive calls. The rule behind the calls is not given here.
MEASURED ATTRIBUTE: Activity

Study these solved cases before continuing.
COMPOUND	Activity
C=C1CC[C@H]2C(=C)CC[C@@H](C(=C)CO)[C@H](O)[C@@H]12	inactive
C=C1CC[C@H]2[C@H](C)C(=O)O[C@@H]2[C@@]2(O)C(=C)[C@H](O)C[C@@H]12	inactive
C=C1CC[C@H]2[C@H](CO)C(=O)O[C@@H]2[C@@]2(O)C(=C)[C@H](O)C[C@@H]12	inactive
C=C1CC[C@H]2[C@H](C)C(=O)O[C@@H]2[C@@]2(O)C(=C)[C@H](O)C[C@@]12O	inactive

Go through the items and report each one's Activity.
1. CC1=CC(=O)C2=C(C)C[C@H](O)[C@H]3[C@H](OC(=O)[C@@H]3C)[C@@H]12 [8ALPHA-HYDROXYACHILLIN]
2. COc1nc(C)nc(NC(=O)NS(=O)(=O)c2ccccc2OCCCl)n1
3. C=C1C(=O)O[C@H]2[C@H]1CCC(=C)[C@@H]1CCC(=C)[C@@]12O
4. C=C1[C@@H]2[C@H]3OC(=O)C(=C)[C@@H]3CCC(=C)[C@@H]2C[C@H]1O

[reply]
1. <20%
2. >40%
3. inactive
4. >40%

----------
# Test system: Solanum lycopersicum
# ASSAY PROCEDURE: Stimulation of germination of Solanum lycopersicum cv. Tres Cantos (tomato) at 0.1 mM or 1 mM after 5 days relative to untreated control
# Assay type: functional
Activity calls are given as the source filed them. The calls are words filed in the database; no cut-off is given here.
MEASURED ATTRIBUTE: Activity

The cases that follow already have their Activity on record.
COMPOUND	MEASURED ATTRIBUTE	ENDPOINT VALUE
CC1=CC(=O)C2=C(C)C[C@H](O)[C@H]3[C@H](OC(=O)[C@@H]3C)[C@@H]12 [8ALPHA-HYDROXYACHILLIN]	Activity	<20%
COc1nc(C)nc(NC(=O)NS(=O)(=O)c2ccccc2OCCCl)n1	Activity	inactive
C=C1[C@@H]2[C@H]3OC(=O)[C@@H](CO)[C@@H]3CCC(=C)[C@@H]2C[C@H]1O	Activity	inactive
C=C1CC[C@H]2C(=C)CC[C@@H]3[C@H](OC(=O)[C@]3(O)CO)[C@@H]12	Activity	<20%

// for each compound in input: emit Activity
1. C=C1C(=O)O[C@H]2[C@H]1CCC(=C)[C@]13C[C@@H](O)C(=C)[C@]21OC(C)(C)O3
2. C=C1CC[C@H]2[C@H](C)C(=O)O[C@@H]2[C@@]2(O)C(=C)[C@H](O)C[C@@H]12
3. C=C1C(=O)O[C@H]2[C@H]1CCC(=C)[C@@H]1CCC(=C)[C@@]12O
4. C=C1CC[C@H]2C(=C)CC[C@@H]3[C@H](OC(=O)[C@H]3CO)[C@@H]12
5. C=C1[C@@H]2[C@H]3OC(=O)C(=C)[C@@H]3CCC(=C)[C@@H]2C[C@@H]1O
6. C=C1C(=O)O[C@H]2[C@H]1CCC(=C)[C@]1(O)C[C@@H](O)C(=C)[C@]21O
7. C=C1[C@@H]2[C@H]3OC(=O)C(=C)[C@@H]3CCC(=C)[C@@H]2C[C@H]1O

[reply]
1: inactive; 2: inactive; 3: inactive; 4: inactive; 5: inactive; 6: <20%; 7: 20%

----------
# System: Solanum lycopersicum
# ASSAY PROCEDURE: Stimulation of hypocotyl length of Solanum lycopersicum cv. Tres Cantos (tomato) at 0.1 mM or 1 mM after 5 days relative to untreated control
# Type: functional
Activity calls are given as the source filed them. No cut-off for these calls is given here.
MEASURED ATTRIBUTE: Activity

MOLECULE	Activity
C=C1[C@@H]2[C@H]3OC(=O)[C@@H](CO)[C@@H]3CCC(=C)[C@@H]2C[C@H]1O	inactive
C=C1C(=O)O[C@H]2[C@H]1CCC(=C)[C@]1(O)C[C@@H](O)C(=C)[C@]21O	inactive
C=C1C(=O)O[C@H]2[C@H]1C[C@@H](O)C(=C)[C@@H]1C[C@@H](O)C(=C)[C@@]12O	inactive
C=C1C(=O)O[C@H]2[C@H]1CCC(=C)[C@]13C[C@@H](O)C(=C)[C@]21OC(C)(C)O3	inactive
C=C1C(=O)C[C@H]2C(=C)CC[C@H]3C(=C)C(=O)O[C@@H]3[C@@H]12 [DEHYDROZALUZANIN C]	>40%
C=C1CC[C@H]2C(=C)CC[C@H]3C(=C)C(=O)O[C@@H]3[C@@H]12 [DEHYDROCOSTUSLACTONE]	inactive
C=C1CC[C@H]2C(=C)CC[C@@H]3[C@H](OC(=O)[C@H]3CO)[C@@H]12	>40%

Okay, now this molecule:
[ask] State the recorded Activity for this entry: CC(=O)O[C@H]1CC(C)=C2C(=O)C=C(C)[C@@H]2[C@H]2OC(=O)[C@H](C)[C@H]21 [8ALPHA-ACETOXYACHILLIN]
[reply] <20%

----------
# Tested on: Triticum aestivum
# ASSAY PROCEDURE: Inhibition of hypocotyl length of Triticum aestivum cv. Cortex (wheat) at 0.1 mM or 1 mM after 5 days relative to untreated control
# Format: functional
MEASURED ATTRIBUTE: inhibition (INH) (%)
Numbers only, in %.

Answer for every listed entry: what is its inhibition (INH)? The entries follow.
1. C=C1[C@@H]2[C@H]3OC(=O)C(=C)[C@@H]3CCC(=C)[C@@H]2C[C@@H]1O
2. COc1nc(C)nc(NC(=O)NS(=O)(=O)c2ccccc2OCCCl)n1
3. C=C1C(=O)O[C@H]2[C@H]1C[C@@H](O)C(=C)[C@@H]1C[C@@H](O)C(=C)[C@@]12O

[reply]
1: 20; 2: 20; 3: 20

----------
# System: Triticum aestivum
# ASSAY PROCEDURE: Stimulation of root length of Triticum aestivum cv. Cortex (wheat) at 0.1 mM or 1 mM after 5 days relative to untreated control
# Format: functional
The source made the active and inactive calls. The rule behind the calls is not given here.
MEASURED ATTRIBUTE: Activity

Example molecules with recorded Activity:
MOLECULE	MEASURED ATTRIBUTE	ENDPOINT VALUE
C=C1CC[C@H]2[C@H](CO)C(=O)O[C@@H]2[C@@]2(O)C(=C)[C@H](O)C[C@@H]12	Activity	inactive
C=C1C(=O)O[C@H]2[C@H]1CCC(=C)[C@@H]1CCC(=C)[C@@]12O	Activity	inactive
C=C1CC[C@H]2C(=C)CC[C@@H](C(=C)CO)[C@H](O)[C@@H]12	Activity	20%
C=C1C(=O)O[C@H]2[C@H]1CCC(=C)[C@@H]1C[C@@H](O)C(=C)[C@@]12O [5ALPHA-HYDROXYISOZALUZANIN C]	Activity	>40%
C=C1C(=O)O[C@H]2[C@H]1CCC(=C)[C@]13C[C@@H](O)C(=C)[C@]21OC(C)(C)O3	Activity	<20%

Would you mind listing Activity for each of the following molecules?
1. C=C1CC[C@H]2C(=C)CC[C@@H]3[C@H](OC(=O)[C@]3(O)CO)[C@@H]12
2. C=C1C(=O)C[C@H]2C(=C)CC[C@H]3C(=C)C(=O)O[C@@H]3[C@@H]12 [DEHYDROZALUZANIN C]
3. C=C1CC[C@H]2C(=C)CC[C@@H]3[C@H](OC(=O)[C@H]3CO)[C@@H]12

[reply]
1: inactive; 2: >40%; 3: 20%
